# Lookup of reported EC50 keyed by entry
Target: hGIPR (Homo sapiens, UniProt P48546)
Sequence (P48546 22-466): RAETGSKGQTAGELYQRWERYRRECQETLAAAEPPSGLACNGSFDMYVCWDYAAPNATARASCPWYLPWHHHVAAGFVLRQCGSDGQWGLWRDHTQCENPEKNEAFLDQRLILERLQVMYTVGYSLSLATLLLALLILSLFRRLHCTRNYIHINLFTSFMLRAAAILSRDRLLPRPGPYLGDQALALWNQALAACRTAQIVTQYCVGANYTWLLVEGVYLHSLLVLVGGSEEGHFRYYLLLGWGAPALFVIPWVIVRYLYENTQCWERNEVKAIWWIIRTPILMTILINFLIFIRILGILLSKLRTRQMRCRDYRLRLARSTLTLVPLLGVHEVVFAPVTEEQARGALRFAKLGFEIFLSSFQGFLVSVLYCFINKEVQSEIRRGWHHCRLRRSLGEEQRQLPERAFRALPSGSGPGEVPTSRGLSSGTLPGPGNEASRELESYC
Experiment: Functional cAMP activation in the presence of 0.1% casein (no HSA);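 also: intracellular cAMP rise after 30 min at 37 °C read by HTRF against a standard curve, scaled between buffer alone (0%) and top control ligand concentration (100%), four-parameter fit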
Assay type: cell-based
Settings: in the presence of 0.1% casein (no HSA); geometric mean; read-out: Relative cAMP EC50, hGIPR
Starred links: 1 amine or outer side, 2 acyl side, 3 side chain; linkers in the order of their positions; H or OH if unused. Non-standard residues stand in square brackets, D forms with d. Groups on a side chain read outwards from the residue. No end group written: not given here. *: point of attachment. C20 diacid = O=C(O)CCCCCCCCCCCCCCCCCCC(=O)*; C18 diacid = O=C(O)CCCCCCCCCCCCCCCCC(=O)*; γGlu = O=C(O)[C@H](CCC(=O)[*:2])N[*:1]; αMe4Pal = C[C@](N)(Cc1ccncc1)C(=O)O; αMeY = C[C@](N)(Cc1ccc(O)cc1)C(=O)O; 4Pal = N[C@@H](Cc1ccncc1)C(=O)O; αMeL = CC(C)C[C@](C)(N)C(=O)O; Orn = NCCC[C@H](N)C(=O)O; AEEA = NCCOCCOCC(=O)O; Aib = CC(C)(N)C(=O)O
Answer with a number only, understood to be in nM.

These recorded examples may help you get a feel for the data.
[
  {
    "substance": "H-Y[Aib]QGTFTSDFS[Orn][αMeL]LDKK([AEEA-γGlu-C18 diacid])AQ[Aib]AFIEYLLE[Aib]GHSSGAPPPSGS-NH2 [Example 241]",
    "scale_unit": "nM",
    "test_value": 0.0748
  },
  {
    "substance": "Y[Aib]QGTFTSDFSK[αMeL]LDKK([AEEA-γGlu-C20 diacid])AQ[Aib]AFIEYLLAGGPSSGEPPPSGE-NH2 [Example 2]",
    "scale_unit": "nM",
    "test_value": 0.207
  },
  {
    "substance": "H-Y[Aib]QGTFTSD[4Pal]SQ[αMeL]LDKK([γGlu-γGlu-C18 diacid])AQ[αMe4Pal]AFIEYLIE[Aib]GPSSGAPPPSGE-NH2 [Example 882]",
    "scale_unit": "nM",
    "test_value": 0.129
  }
]

Input line: Data request, read-out EC50, for H-Y[Aib]QGTFTSDFS[Orn][αMeL]LDKK([AEEA-γGlu-C18 diacid])AQ[Aib]AFIEYLLAGGPSSGAPPPEGS-NH2 [Example 93]
Output line: 0.162

Input line: Now consider H-Y[Aib]QGTFTSDFS[Orn][αMeL]LDKK([AEEA-AEEA-γGlu-C18 diacid])AQ[Aib]AFIEYLLE[Aib]GPSSGEPPPSGT-NH2 [Example 167] .
Output line: 0.101

Input line: Now consider H-Y[Aib]QGTFTSD[4Pal]SQ[αMeL]LD[Orn]K([γGlu-γGlu-C18 diacid])AQ[αMe4Pal]AFIE[αMeY]LIA[Aib]GPSSGAPPPSGSEE-NH2 [Example 1107] .
Output line: 0.0447
